# assay-comment: soluble on expression in E. coli; label from the status in PepcDB or PDB records
measured-attribute: soluble on expression in E. coli

MGSDKIHHHHHHMNTPFMLHQGTSPVILAFPHTGTEVPPAIWDRLDDNGRIFADTDWHIHTLYAGLLENATTVRATFHRYVIDANRDPAGVSLYPGQNTTGLVPETDFDGKPIWKTGAEPNEADIAHRLETFHAPYHAALAAEIERVKSIHGIAILYDCHSIRSHIPFLFEGKLPDFNIGTDMGKTCDPAIEKIAVEVTAAAQGYDSILNGRFKGGWTTRHYGKPQTGVHAIQMELAQSTHLQNEHPPFAYDTGKAERLRTHLKTILTRMEKFALDTK not soluble
MPTLKVAYIPEHFSTPLFFAQQQGYYKAHDLSIEFVKVPEGSGRLINLLNSNEVDIAIGLTEAFIADIAKGNENIHVLDTYVKSPLLWAVSTGSNRDDVTDAKQLKRIGVSRIGSGSYVMSFVLAHQLGVPSFDQFQVLSNFKNLRDSVNLKDGVEGSDAFMWEYFTSKKYYDNHEIKQIDQIYTPWSSWVVATSSDSLQAKSDVIKNFIDAVNQGIQYYNEHVDEAIEYISSNLDYSAEDAKEWTKTVEFNSRIGKTPLDWDTIVVKTKDTLKLAGVLAESDDVILKRLNSNVKKTNL soluble
MSLDIVLVGCKGFGKEHLRIYSKLGYDVSIVERDSNEAKRCSELFRVYKVYDNYEDALRSGSNIVDLVVPDGLHYEMGSLALKSKKHLLVEKPITPDIDSGISLIQQAEESKLKLMVAEQFYFDPSVNEAIRRINNGEIGKPHTVIVRHQSFRELKGWRNEKSMMGRGILIDEGTHYIDTLLNFGGRYRSLRSFVHRTWDFLGEDTAEAVFNFENGMHGLFFYSWNYPEYPLLPEFEIIGDAGSIYEDIGTKPTEPWDQRKRKTAYGDIIVNGKHIPVEPYDVIEREISGFLNAVEKDEPVPMPPDLALRDIITIDRIYKASSDEGHHHHHH soluble
MTKTSKASGLSWFFCDLDGTLLRYQNNQHLIEPTTKRAVAQLVESGANFVVATGRKPSDVRNIYKELGIEQASPYLIANNGAVVWDLKRNSYLNKQTLSLSDFDLIDHINQTLNQLNHEYGCILYGLNDQVYFYHIHAPDSQAFKQYFAFYEGEFVQNQYLEIDGLKTEYNLVKAIWFFKEVHQQKAVIAQHFTNQERLVITSAHSFELVPLNVSKGHAINLIKQQVKITDNQIMVLGDSYNDLPMFQHGVVKVTNHLAPDNLKQLATRVYELPASLFVGQALNDYFKFD not soluble
MDKHQQAIITVSAYITNDTGEVLLVKSYDRSDTWEMPGGQVEPGEPLDRAVHREVYEETGVDIRLIGVSGVYYNETKNIINIVFKATYVKGNVSPQPEEIQKAKFVLIDESNIDEYVTWPHLKSRVLDAMKRECSVPYETWVMNPSRLSARVGR not soluble
MGSDKIHHHHHHMTPDQYCQEKAVQSGSSFYYSFLYLPPERRRAITALYAFCREVDDVVDECTEASVARVKLAWWRQEVAAIFDAGGNKPSHPVAQALAGVASTFNLTADRLNEIIDGMEMDLDYNRYADFDTLRHYCYHVASVVGLCSAEIFGYRNPKTLEYAQDLGLAFQLTNIIRDVGEDARRDRIYLPQDELARFGVSNEDILQSRETDNFRRLIEFQIDRAESYYANAFAALPEEDRKSQRSGIIMAAIYQALLKEIKADGCHVMRQRISLTPLRKLWIAWKTWMKG not soluble

* * *

# assay-comment: soluble on expression in E. coli; label from the status in PepcDB or PDB records
measured-attribute: soluble on expression in E. coli

MTLKGMSYVMCTGSFKLEKEVAETQHGTVLVQVKYEGTDAPCKIPFSTQDEKGATQNGRLITANPIVTDKEKPVNIEAEPPFGESYIVVGAGEKALKLSWFKKGSSIG soluble
MGHHHHHHSHMEKCSVGGLELTEQTPALLGNMAMATSLMDIGDSFGHPACPLVSRSRNSPVEDDDDDDDVVFIESIQPPSISAPAIADQRNFIFASSKNEKPQGNYSVIPPSSRDLASQKGNISETIVIDDEEDIETNGGAEKKSSCFIEWGLPGTKNKTNDLDFSTSSLSRSKTKTGVRPFNPGRMNVAGDLFQNGEFATHHSPEMHLQRRLMSFFQ soluble
MGSDKIHHHHHHMVKKIMLHGATDYGSSNYGDYLYGEIVYDLLESKGYEVSFYNPSDFFQMYLKEYRQKQSFTKKQADAILYIPGGYFGEGHNARFRDNLIQFKRFLPLGIWASYFKKPIGVLGIGAGPNNDSLMNYGIKRIINHAQFITVRDRESFDSLKHLSPSAPVHETFDLIISSKLREEKTEQLCQLKREAKDKKIILVHYNHSKKALEKFAESISLFLENNPNYYVVVTSDSILPYEDAYYQEFRKLVRTEDCFQFKYHSPAEMTSLLKMVDVVLTCKLHVGVVATCFNKSVIAIACHPEKTARYYGAIGELQRCESLFDSSVNSIVKKLETFHLKPITIPSELVLKARSSLDYLDLFLEGLVRES not soluble
MSLVMSGEKMKVIIVEDEFLAQQELSWLINTHSQMEIVGSFDDGLDVLKFLQHNKVDAIFLDINIPSLDGVLLAQNISQFAHKPFIVFITAWKEHAVEAFELEAFDYILKPYQESRIINMLQKLTTAWEQQNNAAEGHHHHHH soluble
MSAEAAAVEVQANEAPIVAPIMYKVESSDGQVYEISDEAVKQSNTLSNLISTCVANDVASMDPIPITNVTGNIMKMVIEWCEKHKGETLPVEDDSVPKNITVPEWDTNFLKIDNDVLFDLIVASNFLDVPGLMSYACKMVANMAIGKSPDEMRVLFAIPTDEEDEAAEKAAKEKAEAEKKAITEKDAAEPSTSK soluble
MQFSTLIRVAVFAVLAIATLADYDDNSVGTIPVAVDLDYFSNYVKKGGPQGPLRFGKRRGPSGPLRFGKRSSFHVAPAAEDVASWYQ not soluble
MSLKEDYADVRNVMIMGGSRIAVRTAQYVPDYMQVKIVDNDINRCNRLTELLDDKTMIINGDGRDMDLLIEEGLKNTEAFVALTDNSETNILACLAAKRMGVEKTVAEVENIDYIGMAESLDIGTVINKKMIAASHIYQMMLDADVSNVKCLTFANADVAEFTVPAGAKITKNLIKDLGLPKGTTIGGMIRNGEGVLVTGDTLIRPGDHVVVFCLSMMIKKIEKFFNEGHHHHHH not soluble

* * *

# assay-comment: soluble on expression in E. coli; label from the status in PepcDB or PDB records
measured-attribute: soluble on expression in E. coli

GGGPFIVVAHSQGSMIAYHVLRQLKKADCDVRLFITIGSPLGIQEAQDVLGKIGSGKPLAVPECVDRWLNVAERLDPVALDSDLGNDYQPNSHGVKIENHAGLMINPEWASNPHSGTGYLSLDIVRQAVRETAGPTFSNPVGRNILMKDLVDNIEDGHREQRHPTLIQLVSDDDDATSLDEVRDRLSNLIKNVL not soluble
MSTMSSPIYIQIHNQIKQAIEAGRWAVGDRIPSERELATQFDVSRMTLRQAIQTLVDEGILERRVGAGTFVANQKVQEKMSGVTSFTDLMLAQGKVPSSKTISYHVTSPSLSESEKLALGANEQVLRMERIRYGDDVPICFEVATVPERLVKQFTKDEITSSLYRTLEEKASLVPGKAQQTVSAMSASERIAEYLSVRRGDALLRLRQISYLQTGEPFEYVRTQYVGNRFEFYLEK not soluble
MSLSEQHIDPTRLRMDELVVALTDRETELAAAEGRIRELEREVSELRRSLNSPSQEAELERLRLLAGTTAVTGPGVVVTLSETPEAVTAKNRVADEDIWRVVNELYTAGAEAIAVGGVRLTSVSGIRNVGERILVGETMIASPVEIHAIGDPAVLDASLKLRGGVIDLLARWGIKVTVVKSDSLTLPPLKTQPAFRYAKPAESAGSEGHHHHHH soluble
MHTIDVIDSHTAGEPTRVVLAGFPDLGDGDLAQCRERFRSDFDHWRSAIACEPRGSDTMVGALLLPPRDPSACTGVIFFNNVGYLGMCGHGTIGVVRTLAELGRIAPGQHRIETPVGTVGVALADDGTVSIDNVESYRHAAGVEVDVPGHGRVRGDVAWGGNWFFITEQAPCALGLAQQRELTAYTEAIRLALEAAGITGEAGGEIDHIEISGVAPDGSGAARNFVLCPGLAYDRSPCGTGTSAKLACLAADGKLAEGERWLQQGILGSAFEGSYRHSGRGIAPRISGHAFITARSQLLIDPADPFAWGIVALEHHHHHH not soluble
MIRWMNEPLWPFIERKKSMRNLVKYVGIGLLVMGLAACDDKDTNATAQGSVAESNATGNPVNLLDGKLSFSLPADMTDQSGKLGTQANNMHVWSDATGQKAVIVIMGDDPKEDLAVLAKRLEDQQRSRDPQLQVVTNKAIELKGHKMQQLDSIISAKGQTAYSSVILGNVGNQLLTMQITLPADDQQKAQTTAENIINTLVIQ not soluble
MKIEDIYQFFENPPPTYLCQEVAICYILYVLLQGESYGTELIQQLETEHPTYRLSDTVLYSAIKFLEDNRAITGYWKKLEGRGRPRRMYQVSPEWQHQAEDLARLWQNYIYVRTN soluble
MNDKKLLVAYDISSNRRRRKVARILEQCGIRINKSVFICSLRELTMDKLVEAVTSQTAKRDKVFFLPLCQHCYTAAWMSGHPTLPKSRRKRKSIVV not soluble
